test: Selectivity index, ratio of IC50 for African green monkey Vero cells to MIC for Mycobacterium tuberculosis H37Rv; assay type: toxicity, cell-based; conditions: read-out: Selectivity Index
Readout Kind: selectivity ratio

Below, 4 compounds whose answers are already recorded.
O=C(N/N=C/c1c[nH]nc1-c1cccc(Cl)c1)c1ccncc1 : > 625
O=C(c1ccncc1)N(/N=C/c1c[nH]nc1-c1ccc(Cl)cc1)C(=O)c1ccc(CCl)cc1 : > 160
O=C(c1ccncc1)N(/N=C/c1c[nH]nc1-c1cccc(Cl)c1)C(=O)c1ccc(F)cc1 : > 625
O=C(c1ccncc1)N(/N=C/c1c[nH]nc1-c1cccc(Cl)c1)C(=O)c1ccccc1Cl : 642

Next item in the queue.
Query `O=C(c1ccncc1)N(/N=C/c1c[nH]nc1-c1cccc(Cl)c1)C(=O)c1ccc(Cl)cc1` yields selectivity ratio of > 625

Just for reference, ChEMBL document CHEMBL3734717 is where these values come from.
